- Test system: Zymoseptoria tritici
- Assay method text: Test A: preventive spray on wheat seedlings, wheat leaf blotch disease rating
- Assay type: in vivo
- Run conditions: Zymoseptoria tritici, 456 h, 50 ppm, 100 = 100% disease control, 0 = no control

Structure smiles: COc1cc(OC)c(Cl)c(-c2cc(C#N)c(=O)n(C)c2-c2ccc(F)cc2Cl)c1
pest or weed control at 50 ppm, %: 100

Structure smiles: COc1cc(OC)c(Cl)c(-c2noc(=O)c(C)c2-c2ccc(F)cc2Cl)c1
pest or weed control at 50 ppm, %: 97

Structure smiles: CCn1c(-c2ccc(F)cc2Cl)c(-c2cc(OC)cc(OC)c2Cl)cc(C#N)c1=O
pest or weed control at 50 ppm, %: 100

Structure smiles: CCn1c(-c2c(F)cc(F)cc2F)c(-c2cc(OC)cc(OC)c2Cl)cc(C#N)c1=O
pest or weed control at 50 ppm, %: 100

Structure smiles: COc1ccc(Cl)c(-c2nn(C)c(=O)c(C)c2-c2cnccc2C)c1
pest or weed control at 50 ppm, %: 54

Structure smiles: COc1cc(OC)c(Cl)c(-n2c(-c3ccc(F)cc3Cl)cc(=O)n(C)c2=O)c1
pest or weed control at 50 ppm, %: 95

Structure smiles: CCc1nc(C)nc(-c2cc(OC)cc(OC)c2Cl)c1-c1ccc(F)cc1Cl
pest or weed control at 50 ppm, %: 100

Structure smiles: COc1cc(OC)cc(-n2nc(C)c(=O)c(C)c2-c2ccc(F)cc2F)c1
pest or weed control at 50 ppm, %: 100

---

- Test system: Blumeria graminis f. sp. Tritici
- Assay method text: Test C: preventive spray on wheat seedlings, wheat powdery mildew disease rating
- Assay type: in vivo
- Run conditions: Blumeria graminis, 192 h, 50 ppm, 100 = 100% disease control, 0 = no control
Reported metric: pest or weed control at 50 ppm (%)

Structure smiles: COc1cc(-c2cc(C#N)c(=O)n(C)c2-c2c(F)cc(F)cc2F)cc(OC)c1Cl
Reading unit: %
Observed value: 47

Structure smiles: COc1cc(OC)c(Cl)c(-n2nc(C)c(=O)c(C)c2-c2ccc(F)cc2F)c1
Reading unit: %
Observed value: 100

Structure smiles: COc1cc(OC)c(Cl)c(-n2c(-c3ccc(F)cc3Cl)cc(=O)n(C)c2=O)c1
Reading unit: %
Observed value: 92

Structure smiles: COc1cc(OC)c(Cl)c(-n2c(-c3ccc(F)cc3Cl)c(C)c(=O)n(C)c2=O)c1
Reading unit: %
Observed value: 98

Structure smiles: COc1cc(OC)c(Cl)c(-c2noc(=O)c(C)c2-c2ccc(F)cc2Cl)c1
Reading unit: %
Observed value: 98

Structure smiles: CCn1c(-c2ccc(F)cc2Cl)c(-c2cc(OC)cc(OC)c2Cl)cc(C#N)c1=O
Reading unit: %
Observed value: 96

Structure smiles: COc1cc(OC)c(Cl)c(-n2nc(Cl)c(=O)c(C)c2-c2ccc(F)cc2Cl)c1
Reading unit: %
Observed value: 99

Structure smiles: COc1ccc(Cl)c(-n2nc(C)c(=O)c(Cl)c2-c2ccc(F)cc2)c1
Reading unit: %
Observed value: 95

Structure smiles: COc1cc(OC)cc(-c2cc(C#N)c(=O)n(C)c2-c2c(F)cc(F)cc2F)c1
Reading unit: %
Observed value: 84

Structure smiles: COc1cc(OC)cc(-n2c(-c3ccc(F)cc3Cl)c(C)c(=O)n(C)c2=O)c1
Reading unit: %
Observed value: 98

Structure smiles: COc1cc(-n2nc(CO)c(=O)c(C)c2-c2ccc(F)cc2F)cc(OC)c1Cl
Reading unit: %
Observed value: 0

Structure smiles: COc1cc(OC)cc(-n2nc(C)c(=O)c(C)c2-c2ccc(F)cc2F)c1
Reading unit: %
Observed value: 100

Structure smiles: CCc1nc(C)nc(-c2cc(OC)cc(OC)c2Cl)c1-c1ccc(F)cc1Cl
Reading unit: %
Observed value: 100

Structure smiles: COc1cc(OC)cc(-n2nc(CO)c(=O)c(C)c2-c2ccc(F)cc2F)c1
Reading unit: %
Observed value: 0

Structure smiles: Cc1ccncc1-c1nn(C)c(=O)c(Cl)c1-c1ccc(F)cc1Cl
Reading unit: %
Observed value: 89

Structure smiles: CCc1nc(C)nc(-c2cc(OC)cc(OC)c2Cl)c1-c1c(F)cccc1F
Reading unit: %
Observed value: 100

Structure smiles: COc1cc(OC)cc(-c2nc(C)nc(C)c2-c2c(F)cc(F)cc2F)c1
Reading unit: %
Observed value: 100

Structure smiles: COc1cc(OC)c(Cl)c(-c2nc(C)nc(C)c2-c2c(F)cc(F)cc2F)c1
Reading unit: %
Observed value: 100

Structure smiles: COc1cc(OC)c(Cl)c(-n2nc(Br)c(=O)c(C)c2-c2ccc(F)cc2Cl)c1
Reading unit: %
Observed value: 100

Structure smiles: COc1cc(OC)cc(-n2nc(C)c(=O)c(C)c2-c2ccc(F)cc2Cl)c1
Reading unit: %
Observed value: 99

Structure smiles: COc1cc(OC)c(Cl)c(-n2c(-c3ccc(F)cc3Cl)c(Cl)c(=O)n(C)c2=O)c1
Reading unit: %
Observed value: 98

Structure smiles: COc1cc(OC)c(Cl)c(-c2cc(C#N)c(=O)n(C)c2-c2ccc(F)cc2Cl)c1
Reading unit: %
Observed value: 98

Structure smiles: Cc1c(-c2ccc(F)cc2Cl)c(-c2ccsc2Cl)nn(C)c1=O
Reading unit: %
Observed value: 99

Structure smiles: COc1cc(OC)c(Br)c(-c2nc(C)nc(C)c2-c2ccc(F)cc2Cl)c1
Reading unit: %
Observed value: 100

Structure smiles: COc1cc(OC)cc(-n2c(-c3ccc(F)cc3Cl)c(Cl)c(=O)n(C)c2=O)c1
Reading unit: %
Observed value: 0

Structure smiles: COc1ccc(Cl)c(-c2nn(C)c(=O)c(C)c2-c2cnccc2C)c1
Reading unit: %
Observed value: 86

Structure smiles: CCn1c(-c2c(F)cc(F)cc2F)c(-c2cc(OC)cc(OC)c2Cl)cc(C#N)c1=O
Reading unit: %
Observed value: 99

Structure smiles: COc1cc(OC)c(Cl)c(-c2cc(C#N)c(=O)n(C)c2-c2c(F)cc(F)cc2F)c1
Reading unit: %
Observed value: 99

Structure smiles: COc1cc(OC)c(Cl)c(-n2nc(CO)c(=O)c(C)c2-c2ccc(F)cc2F)c1
Reading unit: %
Observed value: 98

Structure smiles: CCn1c(-c2c(F)cc(F)cc2F)c(-c2cc(OC)cc(OC)c2)cc(C#N)c1=O
Reading unit: %
Observed value: 99
